# assayProtocol: Solubility measurements in 0.2 M phosphate buffer pH 7.4
# Type: physicochemical
# statedConditions: phosphate buffer, pH 7.4, aqueous buffer, thermodynamic from solid, 0.2 M phosphate buffer pH 7.4, ambient temperature, results from two dilutions
measuredParameter: solubility at 24 h (µg/mL)

1 = CC(=O)Oc1c(C(=O)Nc2ccccc2)c(=O)n(C)c2ccccc12 [Compound 2]
2 = CC(=O)Oc1c(C(=O)N(C(C)=O)c2ccccc2)c(=O)n(C)c2ccccc12 [Compound 1]
INPUT: Lab note: record which item had the higher solubility at 24 h, 1 or 2 . The response must carry the label of the picked entry.
OUTPUT: 1
(1: 186 µg/mL, 2: 21 µg/mL)
